Where do these numbers come from? They come from PubChem BioAssay (NCI).

# assay name: NCI Yeast Anticancer Drug Screen. Data for the mlh1 rad18 strain (AID 175)
# condition set: S. cerevisiae mlh1 rad18 strain growth inhibition; at 50.0 µM; active compounds read high
The panel holds about 79,000 compounds, 15% with a hit somewhere; the sample as a whole holds those more often.

- molecule: "c1ccc(N2CCN(c3ccccc3)CC2)cc1"
  readout unit: "%"
  growth inhibition: 13.8
- molecule: "C=C(CC(=O)O)C(=O)O"
  readout unit: "%"
  growth inhibition: 4.9
- molecule: "Cc1cc(NC(=O)/C=C/c2ccc([N+](=O)[O-])cc2Cl)ccc1S(=O)(=O)F"
  readout unit: "%"
  growth inhibition: -32.5
- molecule: "CCOC(=S)S.[Ag]"
  readout unit: "%"
  growth inhibition: 14.4
- molecule: "COc1cc2c(c(OC)c1O)-c1ccc(OC)c(=O)cc1[C@@H](NC(=O)C(F)(F)F)CC2"
  readout unit: "%"
  growth inhibition: 11.3
- molecule: "CNCCc1ccc(O)cc1"
  readout unit: "%"
  growth inhibition: -0.65
- molecule: "[C-]#[O+].[C-]#[O+].[C-]#[O+].[C-]#[O+].[Fe].[N-]=C(C(F)(F)F)C(F)(F)F"
  readout unit: "%"
  growth inhibition: -25.4
- molecule: "COc1ccc(C(C#N)C(C)=O)cc1 (stereo not given)"
  readout unit: "%"
  growth inhibition: -12.4
- molecule: "c1ccc(N=Nc2ccccc2)cc1"
  readout unit: "%"
  growth inhibition: 24.6
- molecule: "CC1OC(OC2C(O)C(O)C(O)C(O)C2O)C(N)CC1N=C(N)C(=O)O (stereo not given)"
  readout unit: "%"
  growth inhibition: 23.6
- molecule: "c1ccc(P2(c3ccccc3)=NSN=S=N2)cc1"
  readout unit: "%"
  growth inhibition: -1.45
- molecule: "CCN1/C(=C/C=C2\\CCC(/C=C/c3sc4ccc(Cl)cc4[n+]3CC)=C2N(c2ccccc2)c2ccccc2)Sc2ccc(Cl)cc21"
  readout unit: "%"
  growth inhibition: 56.7
- molecule: "CCOC(=O)C12CCC(=O)C=C1CN(C)CC2 (stereo not given)"
  readout unit: "%"
  growth inhibition: 0.8
- molecule: "[N-]=[N+]=C1C(=O)C2CC3CC1CC2C3 (stereo not given)"
  readout unit: "%"
  growth inhibition: 1.5
- molecule: "CC(C)OP(=O)(OC(C)C)C(C)(C)O"
  readout unit: "%"
  growth inhibition: -32.1
- molecule: "Cc1ccc(S(N)(=O)=O)cc1"
  readout unit: "%"
  growth inhibition: 18.8
- molecule: "COC(=O)C1C(OC(=O)c2ccccc2)CC2CCC1N2C(N)=O (stereo not given)"
  readout unit: "%"
  growth inhibition: 3.3
- molecule: "CC(=O)Nc1ccc2c(c1)C(=O)c1cc(NC(C)=O)ccc1-2"
  readout unit: "%"
  growth inhibition: -7.5
- molecule: "CCCc1c(C#N)c(S)[nH]c(=S)c1C#N"
  readout unit: "%"
  growth inhibition: 16.2
- molecule: "Clc1ccc(N2CCN(c3ccc(Cl)cc3)CC2)cc1"
  readout unit: "%"
  growth inhibition: 6.05
- molecule: "COC(=O)C1C(=O)NC2(C)CC1c1ccccc1O2 (stereo not given)"
  readout unit: "%"
  growth inhibition: -1.45
- molecule: "BrCCCBr"
  readout unit: "%"
  growth inhibition: 21.3
- molecule: "N#CC[CH2][Sn]([I])([c]1ccccc1)[c]1ccccc1"
  readout unit: "%"
  growth inhibition: 98.1
- molecule: "ClCc1nc(-c2ccco2)no1"
  readout unit: "%"
  growth inhibition: 29.9
- molecule: "COC(=O)[C@H]1[C@H]2CCOC1(c1cc(OC)c(OC)c(OC)c1)c1cc3c(cc1[C@H]2O)OCO3"
  readout unit: "%"
  growth inhibition: -0.6
